Readings of IC50 for the listed molecules
Test system: Plasmodium falciparum
Test: Antimalarial activity against multidrug resistant Plasmodium falciparum NHP1337 assessed as growth inhibition after 72 hrs by SYBR Green based fluorescence assay
Format: functional, organism-based
Conditions: Plasmodium falciparum, NHP1337, 72 h
experimental_endpoint: IC50 (µM)

CC(=O)O[C@@H]1[C@@H](OC(=O)/C=C/c2ccc(O)cc2)[C@H](Oc2c(-c3ccc(O)cc3)oc3cc(O)cc(O)c3c2=O)O[C@H](COC(=O)/C=C\c2ccc(O)cc2)[C@H]1OC(C)=O ... 4
O=c1cc(-c2ccc(O)c(-c3c(O)cc(O)c4c(=O)cc(-c5ccc(O)cc5)oc34)c2)oc2cc(O)cc(O)c12 ... 19
CC(=O)O[C@@H]1[C@@H](OC(=O)/C=C\c2ccc(O)cc2)[C@H](Oc2c(-c3ccc(O)cc3)oc3cc(O)cc(O)c3c2=O)O[C@H](COC(=O)/C=C\c2ccc(O)cc2)[C@H]1OC(C)=O ... 3.8

Where do the numbers come from? From ChEMBL document CHEMBL3813696.
